B1: PBXIP1 (parent)
chain: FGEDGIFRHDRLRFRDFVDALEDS

Variants of: B1
test-method-notes: protein stability index of a GFP-peptide fusion (GPS, HEK-293T) (PSI 1-6); higher = more stable;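 further: lentivirally expressed fusions sorted by FACS into six bins by GFP to DsRed ratio, PSI derived from sequencing read proportions per bin multiplied by bin number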
experimental-parameters: c terminus: a fixed tail appended
Each record here notes measured protein stability index.
Give the figure by itself; no unit, no explanation.

[
  {
    "mutation-name": "G5L",
    "protein stability index": 2.54
  },
  {
    "mutation-name": "L21F",
    "protein stability index": 2.73
  },
  {
    "mutation-name": "E3L",
    "protein stability index": 2.44
  }
]

// query Look up protein stability index: `V18M`
// result 2.87

// query Look up protein stability index: `D10V`
// result 1.52

// query Look up protein stability index: `E22P`
// result 2.81

// query Look up protein stability index: `E22R`
// result 2.38

// query Look up protein stability index: `E3H`
// result 2.89

// query Look up protein stability index: `F17T`
// result 3.61

// query Look up protein stability index: `F1E`
// result 4.29

// query Look up protein stability index: `R13F`
// result 2.25

// query Look up protein stability index: `R8K`
// result 2.23

// query Look up protein stability index: `L21N`
// result 3.73

// query Look up protein stability index: `D10G`
// result 2.33

// query Look up protein stability index: `H9F`
// result 2.26

// query Look up protein stability index: `R8L`
// result 2.55

// query Look up protein stability index: `R11I`
// result 2.43

These entries and their values trace back to the supplement of paper PMC10567573.
